Assay: Metabolic stability in mouse plasma assessed as half life
Type: ADME, cell-free
QUANTITY: half-life (min)
Write the value in min as a bare number.

Tell me half-life reported for `CN1CCc2c(c3ccccc3n2Cc2ccc(C(=O)NO)cc2)C1`
30

====

Assay: AUC in CD-1 mouse at 30 mg/kg, po
Assay type: ADME, organism-based
Conditions: in vivo
QUANTITY: AUC (ng·h/mL)
Write the value in ng·h/mL as a bare number.

Tell me AUC reported for CN1CCc2c(c3ccccc3n2Cc2ccc(C(=O)NO)cc2)C1 [TUBASTATIN A]
134

====

Experiment: Half life in CD-1 mouse at 30 mg/kg, po
Type: ADME, organism-based
Conditions: in vivo
QUANTITY: half-life (min)
Write the value in min as a bare number.

Tell me half-life reported for `CN1CCc2c(c3ccccc3n2Cc2ccc(C(=O)NO)cc2)C1`
51.6
